For each entry below, report its pKd value.
# systemTested: T1, APBA1_2, Q02410
# T1 sequence (Q02410 742-832, limits assumed, looked up): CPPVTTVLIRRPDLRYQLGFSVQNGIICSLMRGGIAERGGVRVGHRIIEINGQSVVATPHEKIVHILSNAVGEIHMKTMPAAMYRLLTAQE
# assaySummary: holdup assay
# Parameters: key: below the threshold = too weak to quantify, mostly under pKd 3.1 to 4
# conditionParameters: plain residues with an end cap or a label only (N-terminal biotin on a linker: ado-ado)
Lab note: record the figure alone, no unit after it.

Prompt: Entry under review: RRISSLESEV [GRIN2C, Q14957] . Reported pKd?
Response: 3.75

Prompt: Entry under review: PPYRHRNTVV [ERBB4, Q15303] . Reported pKd?
Response: 3.53

Prompt: Entry under review: VDSTVKVWTC [TRAF7, Q6Q0C0] . Reported pKd?
Response: 3.5

Prompt: Entry under review: QGLAERISVL [PRKD2, Q9BZL6] . Reported pKd?
Response: 4.05
